Consider the following molecules; for each one, report its AC50.
target: p53 Y220C (Homo sapiens, UniProt P04637, Y220C); experiment: Luciferase Reporter Assay (Luc), p53 response element, NClH1299 cells with inducible p53 Y220C; type: cell-based; details: AC50; luciferase reporter, NClH1299 inducible p53 Y220C, 6 hour; read-out: Luc P53 Y220C AC50

For orientation, consider the following solved cases.
1) CNC(=O)c1cc(F)c(OC)c(NCC#Cc2cc3c(N[C@@H]4CCN(C)C[C@@H]4F)nccn3c2SC(F)(F)F)c1 [Example 337]; < 750 nM
2) CNC(=O)c1ccc(OCCN(C)C)c(NCC#Cc2nc3c(N[C@@H]4CCOC[C@@H]4F)cccn3c2SC(F)(F)F)c1 [Example 229]; 750 to 1500 nM
3) CNC(=O)c1ccc(OC)c(NCC#Cc2nc3c(N[C@@H]4CNC[C@@H]4F)cccn3c2CC(F)(F)F)n1 [Example 263]; > 3000 nM

# ---- query molecule ----
Consider the molecule shown here: CNC(=O)c1ccc(NCC#Cc2cc3c(N[C@@H]4CCN(C)C[C@@H]4F)nccn3c2SC(F)(F)F)cc1 [Example 297] What is its recorded AC50?
< 750 nM
